- assay_text: physchem
- test_conditions: 6 h, pH 7.4
Log Sol reference
Form field (numeric): enter value without unit.

| mol | Log Sol |
| --- | --- |
| c1ccc(CNc2nc(Nc3ccc(N4CCOCC4)cc3)nc3ccccc23)cc1 | -0.22 |
| NS(=O)(=O)c1cccc(Nc2nc(NCc3cccs3)c3ccccc3n2)c1 | -0.47 |

Query :: Report Log Sol for c1ccc(CNc2nc(Nc3ccccc3)nc3ccccc23)cc1 please.
Result :: -0.39

Query :: So what's the measured Log Sol for this one? NS(=O)(=O)c1cccc(Nc2nc(NCc3ccco3)c3ccccc3n2)c1
Result :: -0.42

Query :: If you can, please state the reported Log Sol value of NS(=O)(=O)c1ccc(Nc2nc(NCc3cccs3)c3ccccc3n2)cc1 .
Result :: -0.80
